assay: Calcein AM cytotoxicity assay, K562; type: cell-based, human; conditions: human, K562 erythroleukemia cells
Exercise: state measured GI50 at 72 h for each of the compounds provided.

Briefly, GI50 at 72 h measured for OC[C@H]1O[C@@H](n2cnc3c(NCc4ccccc4)ncnc32)[C@@H](O)[C@@H]1O : > 100 µM

Briefly, GI50 at 72 h measured for OC[C@H]1O[C@@H](n2cnc3c(NCc4ccco4)ncnc32)[C@@H](O)[C@@H]1O : > 100 µM

Briefly, GI50 at 72 h measured for OC[C@H]1OC(n2cnc3c(NCc4ccccc4)ncnc32)[C@H](O)[C@@H]1O (stereo partly drawn) [6-benzylaminopurin9-ribosylpurine, 6-benzylamino-9-ribosylpurine, reference compound] : 5.5 µM

Briefly, GI50 at 72 h measured for COc1cccc(CNc2ncnc3c2ncn3[C@@H]2O[C@H](CO)[C@@H](O)[C@@H]2O)c1 : > 100 µM

Briefly, GI50 at 72 h measured for OC[C@H]1O[C@@H](n2cnc3c(NCc4cccc(F)c4)ncnc32)[C@@H](O)[C@@H]1O : > 100 µM

Briefly, GI50 at 72 h measured for OC[C@H]1O[C@@H](n2cnc3c(NCc4cccc(Cl)c4)ncnc32)[C@@H](O)[C@@H]1O : > 100 µM
